# Target: WT human SLACK (Homo sapiens)
# Assay info: Whole-cell automated patch clamp (APC) in CHO-K1 cells stably expressing WT human SLACK
# Condition summary: APC, CHO-K1 cells stably expressing WT human SLACK; averages (n ≥ 3)
Exercise: state measured IC50 for each of the compounds provided.
The figure you give is taken to be in µM; do not add the unit.

Give recorded IC50 with WT human SLACK (Homo sapiens) for the following compound: COc1ccc(Oc2ncc(NC(=O)C(C)(C)Oc3ccc(Cl)cc3)cn2)cc1
1.8

Which measured IC50 belongs to CC(C)(Cc1ccc(Cl)cc1)C(=O)Nc1cnc(Oc2ccccc2F)nc1 , tested on WT human SLACK (Homo sapiens)?
7.2

Field: IC50 (WT human SLACK (Homo sapiens)). Entry: CC(C)(Oc1ccc(Cl)cc1)C(=O)Nc1cnc(Oc2cccc(F)c2)nc1
2.1

Recorded IC50 for CC(C)(Oc1ccc(Cl)cc1)C(=O)Nc1cnc(Oc2ccc(C(F)(F)F)cc2)nc1 with WT human SLACK (Homo sapiens), please?
1

Observed IC50 on WT human SLACK (Homo sapiens) for Cc1ccccc1Oc1ncc(NC(=O)C(C)(C)Oc2ccc(Cl)cc2)cn1 , please.
2.9

# get_value(readout= IC50, system= WT human SLACK (Homo sapiens)) for CC(C)(Oc1ccc(S(F)(F)(F)(F)F)cc1)C(=O)Nc1cnc(Oc2ccccc2F)nc1
4.1

Observed IC50 on WT human SLACK (Homo sapiens) for CN(c1ncc(NC(=O)C(C)(C)Oc2ccc(Cl)cc2)cn1)c1ccccc1F , please.
2.1

Form entry - test system: WT human SLACK (Homo sapiens); read-out: IC50; compound: CC(C)(Oc1ccc(Cl)cc1)C(=O)Nc1cnc(Oc2cccc(C#N)c2)nc1
1.7

---

# Target: WT human SLACK (Homo sapiens, UniProt Q5JUK3)
# Construct: host or cells: CHO-K1
# Sequence (Q5JUK3 1-1235 isoform Q5JUK3-3): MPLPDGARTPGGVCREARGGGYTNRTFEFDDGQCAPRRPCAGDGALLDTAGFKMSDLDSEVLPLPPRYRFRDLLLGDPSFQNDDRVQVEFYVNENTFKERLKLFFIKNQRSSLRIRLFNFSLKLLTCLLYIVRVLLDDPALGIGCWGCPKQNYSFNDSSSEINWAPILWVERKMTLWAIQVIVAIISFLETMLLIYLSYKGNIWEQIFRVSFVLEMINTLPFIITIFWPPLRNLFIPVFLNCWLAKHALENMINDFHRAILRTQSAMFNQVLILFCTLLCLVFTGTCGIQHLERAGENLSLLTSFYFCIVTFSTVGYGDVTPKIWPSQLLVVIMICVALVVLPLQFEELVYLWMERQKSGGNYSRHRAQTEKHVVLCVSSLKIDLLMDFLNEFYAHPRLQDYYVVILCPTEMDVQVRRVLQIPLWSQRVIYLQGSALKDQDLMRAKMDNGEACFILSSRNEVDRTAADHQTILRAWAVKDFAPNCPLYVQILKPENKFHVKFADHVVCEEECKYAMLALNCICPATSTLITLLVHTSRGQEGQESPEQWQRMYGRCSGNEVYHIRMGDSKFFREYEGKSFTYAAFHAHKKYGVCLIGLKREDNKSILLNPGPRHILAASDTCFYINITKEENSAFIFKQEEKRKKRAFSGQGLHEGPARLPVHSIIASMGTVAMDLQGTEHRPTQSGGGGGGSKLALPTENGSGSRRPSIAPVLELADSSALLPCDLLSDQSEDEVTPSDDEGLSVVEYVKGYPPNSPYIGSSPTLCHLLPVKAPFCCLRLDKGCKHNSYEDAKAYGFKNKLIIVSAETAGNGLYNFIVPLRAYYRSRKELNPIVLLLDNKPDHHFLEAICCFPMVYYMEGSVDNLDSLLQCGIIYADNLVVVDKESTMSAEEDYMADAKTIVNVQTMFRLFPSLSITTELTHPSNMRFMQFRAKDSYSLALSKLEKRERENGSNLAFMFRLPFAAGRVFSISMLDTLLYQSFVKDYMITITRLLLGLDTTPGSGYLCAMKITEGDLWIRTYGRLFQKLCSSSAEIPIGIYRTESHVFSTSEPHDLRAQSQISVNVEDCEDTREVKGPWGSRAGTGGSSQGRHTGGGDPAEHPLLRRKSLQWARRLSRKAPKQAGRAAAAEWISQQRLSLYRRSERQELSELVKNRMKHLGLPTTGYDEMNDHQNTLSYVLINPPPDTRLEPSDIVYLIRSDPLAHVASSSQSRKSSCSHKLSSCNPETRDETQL
# Assay info: Whole-cell automated patch clamp (APC) in CHO-K1 cells stably expressing WT human SLACK
# Type: cell-based
# Condition summary: APC, concentrations 0.125 to 30 µM
Measured parameter: WT SLACK inhibition, result in words

[[record]]
compound = "CC(C)(Oc1ccc(Cl)cc1)C(=O)Nc1cnc(Oc2ccc(C(N)=O)cc2)nc1 [Analog 37]"
measured = "only a weak inhibitor"

[[record]]
compound = "CNCc1ccc(Cl)cc1 [Analog 80]"
measured = "only a weak inhibitor"

[[record]]
compound = "CC(C)(Oc1ccc(Cl)cc1)C(=O)Nc1cnc(Oc2ccccc2F)cn1 [Analog 90]"
measured = "only weak inhibitors"

[[record]]
compound = "CC(C)(Oc1ccc(Cl)cc1)C(=O)Nc1ccc(Oc2ccccc2F)cn1 [Analog 89]"
measured = "only weak inhibitors"


---

Provide the recorded IC50 for the entries that follow.
# Target: WT human SLACK (Homo sapiens, UniProt Q5JUK3)
# Assay info: Whole-cell automated patch clamp (APC) in CHO-K1 cells stably expressing WT human SLACK
# Condition summary: APC, CHO-K1 cells stably expressing WT human SLACK; averages (n ≥ 3)
Give the number; nM is assumed, so skip it.

So what does the record say about IC50 for CC(C)(Oc1ccc(Cl)cc1)C(=O)Nc1cnc(Oc2ccc(F)c(F)c2)nc1 [Analog 41] ?
1700

Please give the measured IC50 for this compound: CC(C)(Oc1ccc(Cl)cc1)C(=O)Nc1cnc(Oc2cccc(C(F)(F)F)c2)nc1 [Analog 25]
1900

Data request, read-out IC50, for CC(C)(Oc1ccc(Cl)cc1)C(=O)Nc1cnc(Oc2ccccc2OC(F)(F)F)nc1 [Analog 30]
1400

Can you share its IC50? I mean this compound: Cc1ccc(Oc2ncc(NC(=O)C(C)(C)Oc3ccc(Cl)cc3)cn2)cc1 [Analog 23]
1700

Sample CN(c1ccc(S(C)(=O)=O)cc1)c1ncc(NC(=O)C(C)(C)Oc2ccc(Cl)cc2)cn1 [Analog 67] — what was its IC50?
1400

Recorded IC50 of CC(C)(Oc1ccc(Cl)cc1)C(=O)Nc1cnc(Oc2c(F)cccc2F)nc1 [Analog 40] , please.
520

I would be grateful if you could share the reported IC50 for CC(C)(Oc1ccc(Cl)cc1)C(=O)Nc1ccc(Oc2ccccc2F)nc1 [Analog 86] .
3100
